Target protein (sequence): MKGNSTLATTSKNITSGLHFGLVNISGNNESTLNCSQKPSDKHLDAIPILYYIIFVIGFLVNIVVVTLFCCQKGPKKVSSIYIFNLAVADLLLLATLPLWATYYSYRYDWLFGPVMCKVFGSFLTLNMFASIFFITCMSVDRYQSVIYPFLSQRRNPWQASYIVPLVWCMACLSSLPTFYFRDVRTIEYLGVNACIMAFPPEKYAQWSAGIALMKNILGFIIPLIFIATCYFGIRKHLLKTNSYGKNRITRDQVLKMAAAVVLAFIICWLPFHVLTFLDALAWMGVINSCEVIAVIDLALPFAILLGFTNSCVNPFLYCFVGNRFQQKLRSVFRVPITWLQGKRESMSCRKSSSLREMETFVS
pKi values by entry
FYI, pKi means -log10 of a concentration in mol per litre.

| compound | measurement |
| --- | --- |
| CCCCc1nc2ccccc2[n+]([O-])c1Oc1ccc(-c2ccccc2-c2nn[nH]n2)cc1 | 8.35 |

We next turn to a different compound, shown below.
For the compound CCCc1nc2ccccc2n1C(F)(F)C(O)c1ccc(-c2ccccc2-c2nnn[nH]2)cc1 (configuration not stated) , what pKi is on record?
6.32

---

experiment-summary: Binding affinity to angiotensin AT1 receptor in rat liver membranes
Assay type: cell membranes, Membrane
quantity-measured: Ki (nM)
Response body: numeric value in nM, unit text excluded.

For the molecule CCCN(Cc1ccc(-c2ccccc2-c2nn[nH]n2)cc1)c1ncccc1C(=O)O , what Ki is on record?
0.76

---

experiment-summary: Binding affinity to angiotensin AT1 receptor in rat liver membranes
Format: cell membranes, Membrane
pIC50 values by entry
FYI, pIC50 means -log10 of a concentration in mol per litre.

The following compounds have reported results that may help.
| compound | pIC50 |
| --- | --- |
| CCc1nc2c(n1Cc1ccc(-c3ccccc3-c3nn[nH]n3)cc1)/C(=C/C(=O)O)CCCC2 | 8.26 |
| CCCCc1nc(Cl)c(CO)n1Cc1ccc(-c2ccccc2-c2nnn[nH]2)cc1 [LOSARTAN] | 8.17 |
| CCc1nc2c(C)cc(C)nc2n1Cc1ccc(-c2ccccc2S(=O)(=O)NC(=O)NCC2CC2)cc1 | 6.00 |
| CCCCC1=NC2(CCCC2)C(=O)N1Cc1ccc(-c2ccccc2-c2nnn[nH]2)cc1 [IRBESARTAN] | 8.89 |

We next turn to a different compound, shown below.
For the compound CCc1nc2c(C)cc(C)nc2n1Cc1ccc(-c2c(-c3nn[nH]n3)cnc3ccccc23)cc1 , what pIC50 is on record?
9.40

---

experiment-summary: Binding affinity to angiotensin AT1 receptor in rat cortical membranes
Assay type: cell membranes
quantity-measured: IC50 (nM)
Response body: numeric value in nM, unit text excluded.

For the compound CCCCc1nc2ccn(CC(=O)N(C)C)c(=O)c2n1Cc1ccc(-c2ccccc2-c2nnn[nH]2)cc1 , what IC50 is on record?
0.7

---

system-tested: Type-1 angiotensin II receptor (Homo sapiens, UniProt P30556)
Sequence (P30556 whole entry): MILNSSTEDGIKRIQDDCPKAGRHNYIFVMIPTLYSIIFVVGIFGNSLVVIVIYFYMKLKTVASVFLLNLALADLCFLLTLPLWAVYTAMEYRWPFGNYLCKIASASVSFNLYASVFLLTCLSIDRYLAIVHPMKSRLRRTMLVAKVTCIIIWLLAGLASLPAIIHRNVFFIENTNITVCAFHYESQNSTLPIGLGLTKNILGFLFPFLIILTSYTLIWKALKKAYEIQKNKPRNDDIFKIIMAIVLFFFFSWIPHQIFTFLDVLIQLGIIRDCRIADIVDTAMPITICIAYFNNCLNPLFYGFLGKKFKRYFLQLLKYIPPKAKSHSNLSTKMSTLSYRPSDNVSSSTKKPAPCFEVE
experiment-summary: Displacement of [3H]-angiotensin 2 from angiotensin AT1 receptor
quantity-measured: pKi
FYI, pKi means -log10 of a concentration in mol per litre.

For the molecule CCCCc1nc(Cl)c(C(=O)O)n1Cc1ccc2oc(-c3ccccc3-c3nn[nH]n3)c(Br)c2c1 [ZOLASARTAN] , what pKi is on record?
8.70

---

experiment-summary: Oral bioavailability in rat
Type: ADME, organism-based
assay-conditions: in vivo
quantity-measured: bioavailability (%)
Response body: numeric value in %, unit text excluded.

The following compounds have reported results that may help.
| compound | bioavailability, % |
| --- | --- |
| CCCCc1nn(-c2ccccc2C(F)(F)F)c(=O)n1Cc1ccc(-c2ccccc2S(=O)(=O)NC(=O)c2ccccc2)cc1 | 44 |
| CCc1nc2c(C)cc(C)nc2n1Cc1ccc2nc(-c3ccccc3NS(=O)(=O)C(F)(F)F)ccc2c1 | 94 |

For the compound CCOc1nc2cccc(C(=O)OC(C)OC(=O)OC3CCCCC3)c2n1Cc1ccc(-c2ccccc2-c2nnn[nH]2)cc1 (stereo not given) , what bioavailability is on record?
28

For the compound CCc1nc2c(C)cc(C)nc2n1Cc1cccc([C@@H](c2ccccc2)[C@@H](C)C(=O)O)c1 , what bioavailability is on record?
91

---

system-tested: UniProtKB P34976
Sequence (P34976 whole entry): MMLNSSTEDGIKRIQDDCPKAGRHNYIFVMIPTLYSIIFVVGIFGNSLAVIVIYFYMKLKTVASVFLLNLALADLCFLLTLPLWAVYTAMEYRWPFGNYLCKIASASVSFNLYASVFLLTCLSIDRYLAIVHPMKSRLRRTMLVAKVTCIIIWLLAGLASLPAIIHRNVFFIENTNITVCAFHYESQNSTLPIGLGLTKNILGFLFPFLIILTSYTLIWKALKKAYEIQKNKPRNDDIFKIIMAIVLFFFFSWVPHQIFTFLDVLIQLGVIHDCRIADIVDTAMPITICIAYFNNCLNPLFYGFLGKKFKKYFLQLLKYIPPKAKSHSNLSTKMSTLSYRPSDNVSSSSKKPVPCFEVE
experiment-summary: Antagonist activity at angiotensin AT1 receptor in rabbit aorta
Format: functional, tissue-based
assay-conditions: read-out: pA2 (converted)
Decision: Kb >= 4 nM yields Condition met, all other cases yield Condition not met.

Hi team, for CCc1nc2c(C)cc(C)nc2n1Cc1ccc(-c2ccccc2S(=O)(=O)NC(=O)c2ccccc2)cc1 , is the recorded Kb at or above 4 nM?
Condition not met

Hi team, for CCCCCCC(C(=O)O)n1cnc(NC(=O)c2cccc(O)c2C(=O)O)c1 (centres undefined) , is the recorded Kb at or above 4 nM?
Condition met

Hi team, for CCc1cc(OCc2ccc(-c3ccccc3-c3nnn[nH]3)cc2)c2ccccc2n1 , is the recorded Kb at or above 4 nM?
Condition met

Hi team, for CCCc1nc2c(n1Cc1ccc(-c3ccccc3-c3nnn[nH]3)cc1)C(=O)CCCC2 , is the recorded Kb at or above 4 nM?
Condition not met

Hi team, for Cc1ccnc2c1nc(C1CC1)n2Cc1ccc(-c2ccccc2C(=O)O)cc1 , is the recorded Kb at or above 4 nM?
Condition not met

Hi team, for CCc1cc(OCc2ccc(-c3ccccc3-c3nnn[nH]3)cc2)c2c(n1)CCCC2 , is the recorded Kb at or above 4 nM?
Condition not met

Hi team, for CCCCc1nc2cccnc2n1Cc1ccc(-n2cccc2-c2nnn[nH]2)cc1 , is the recorded Kb at or above 4 nM?
Condition not met

Hi team, for CCCCc1nc2ccc(C(C)(C)OC)cc2c(=O)n1Cc1ccc(-c2ccccc2-c2nn[nH]n2)cc1 , is the recorded Kb at or above 4 nM?
Condition met

Hi team, for CCc1nc2c(CC)cn(Cc3ccc(-c4ccccc4-c4nn[nH]n4)cc3)n2n1 , is the recorded Kb at or above 4 nM?
Condition not met

---

system-tested: Type-1 angiotensin II receptor (Oryctolagus cuniculus)
experiment-summary: Antagonist activity at angiotensin AT1 receptor in rabbit aorta
Format: functional, tissue-based
quantity-measured: IC50
I'd appreciate it if you included the unit after the number.

For the compound CCCCc1nc2ccn(CC(=O)N(C)C)c(=O)c2n1Cc1ccc(-c2ccccc2-c2nnn[nH]2)cc1 , what IC50 is on record?
200 pM

---

experiment-summary: Half life in rat
Assay type: ADME, organism-based
assay-conditions: in vivo
quantity-measured: half-life (min)
Response body: numeric value in min, unit text excluded.

For the molecule CCc1nc2c(C)cc(C)nc2n1Cc1cccc([C@@H](c2ccccc2)[C@@H](C)C(=O)O)c1 , what half-life is on record?
546

---

experiment-summary: Antagonist activity at angiotensin AT1 receptor in rat liver membranes
Type: functional, cell membranes, Membrane
quantity-measured: pIC50
FYI, pIC50 means -log10 of a concentration in mol per litre.

The following compounds have reported results that may help.
| compound | quantity-measured | measurement |
| --- | --- | --- |
| Cc1nc(Sc2ccc(-c3ccccc3-c3nn[nH]n3)cc2)c2ccccc2n1 | pIC50 | 6.46 |
| CCc1cc(Sc2ccc(-c3ccccc3-c3nn[nH]n3)cc2)c2ncccc2n1 | pIC50 | 7.70 |

We next turn to a different compound, shown below.
For the compound Cc1nc(C)c2c(n1)N(Cc1ccc(-c3ccccc3-c3nnn[nH]3)cc1)C(=O)CC2 [TASOSARTAN] , what pIC50 is on record?
8.28

---

system-tested: Type-1 angiotensin II receptor (Bos taurus) (UniProt P25104)
Sequence (whole entry): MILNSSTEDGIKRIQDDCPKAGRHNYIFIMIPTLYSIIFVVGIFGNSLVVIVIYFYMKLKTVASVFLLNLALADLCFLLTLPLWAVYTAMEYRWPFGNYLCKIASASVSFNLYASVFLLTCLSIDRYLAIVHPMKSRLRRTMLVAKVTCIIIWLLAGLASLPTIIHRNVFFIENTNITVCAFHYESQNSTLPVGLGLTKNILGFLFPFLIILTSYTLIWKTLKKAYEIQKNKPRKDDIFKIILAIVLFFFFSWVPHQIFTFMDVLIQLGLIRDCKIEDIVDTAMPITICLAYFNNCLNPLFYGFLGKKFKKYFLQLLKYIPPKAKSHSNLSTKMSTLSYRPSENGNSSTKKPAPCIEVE
experiment-summary: Binding affinity to angiotensin AT1 receptor in bovine adrenal cortex membranes
Format: cell membranes
assay-conditions: Membrane
quantity-measured: Activity
I'd appreciate it if you included the unit after the number.

The following compounds have reported results that may help.
| smiles-str | Activity |
| --- | --- |
| CCCCc1nc(Cl)c(CO)n1Cc1ccc(-c2ccccc2-c2nnn[nH]2)cc1 | 11.6 nM |
| CCCc1cc(=O)n(CC(=O)N(C)C)c(=O)n1Cc1ccc(-c2ccccc2-c2nn[nH]n2)cc1 | 9.3 nM |
| CCOc1nc2cccc(C(=O)O)c2n1Cc1ccc(-c2ccccc2-c2nsc(O)n2)cc1 | 2.5 nM |

We next turn to a different compound, shown below.
GET /values?readout=Activity&system=Type-1 angiotensin II receptor (Bos taurus) (UniProt P25104)&item= CCOc1nc2cccc(C(=O)O)c2n1Cc1ccc(-c2ccccc2-c2noc(=O)[nH]2)cc1
4.2 nM
